Taken from ChEMBL document CHEMBL1833859.

protocol-notes: AUC (0 to 6 hrs) in mouse at 100 mg/kg, po
Assay type: ADME, organism-based
Set-up: time < 6 hr, dose 100 mg/kg, route oral
stated-conditions: plasma
measurement-name: AUC(0-t) at 6 h (µM·h)
Report only the number, with the unit µM·h understood.

Which measured AUC(0-t) at 6 h value corresponds to `Cc1cn2c(-c3cn[nH]c3)cnc2c(Nc2ccc(C(=O)N3CCNCC3)cc2F)n1` ?
8.1

* * *

protocol-notes: AUC (0 to 6 hrs) in mouse at 10 mg/kg, po
Format: ADME, organism-based
Design: time < 6 hr, dose 10 mg/kg, route oral
stated-conditions: plasma
measurement-name: AUC(0-t) at 6 h (µM·h)
Give the quantity in µM·h, number only.

Please look up its AUC(0-t) at 6 h: `Cc1cn2c(-c3cn[nH]c3)cnc2c(Nc2ccc(C(=O)N3CCNCC3)cc2F)n1`
0.1

* * *

protocol-notes: Permeability across human Caco2 cells
Assay type: ADME, cell-based
stated-conditions: Caco-2, read-out: permeability
measurement-name: Papp (×10⁻⁶ cm/s)
Write the value in ×10⁻⁶ cm/s as a bare number.

Please report the recorded Papp for `O=C(c1ccc(Nc2nc(C3CC3)cn3c(-c4cn[nH]c4)cnc23)c(F)c1)N1CCOCC1` .
31.4

* * *

protocol-notes: Tmax in mouse at 30 mg/kg, po
Assay type: ADME, organism-based
Set-up: dose 30 mg/kg, route oral
stated-conditions: in vivo
measurement-name: Tmax
Field note: include the unit after the figure.

Tell me the measured Tmax of `Cc1cn2c(-c3cn[nH]c3)cnc2c(Nc2ccc(C(=O)N3CCNCC3)cc2F)n1` , please.
2 h

* * *

protocol-notes: Intrinsic clearance in human Hepatocytes assessed as per million cells
Format: ADME, cell-based, Liver, Hepatocyte
measurement-name: hepatocyte CLint (µL/min/1e6 cells)
// note: answer is a bare numeric in µL/min/1e6 cells

Look at this compound and give its reported hepatocyte CLint. `Cc1cn2c(-c3cn[nH]c3)cnc2c(Nc2ccc(C(=O)N3CCNCC3)cc2F)n1`
2

* * *

# collection of IC50 values tested on Tyrosine-protein kinase Lck (Homo sapiens)
# Sequence (P06239 whole entry): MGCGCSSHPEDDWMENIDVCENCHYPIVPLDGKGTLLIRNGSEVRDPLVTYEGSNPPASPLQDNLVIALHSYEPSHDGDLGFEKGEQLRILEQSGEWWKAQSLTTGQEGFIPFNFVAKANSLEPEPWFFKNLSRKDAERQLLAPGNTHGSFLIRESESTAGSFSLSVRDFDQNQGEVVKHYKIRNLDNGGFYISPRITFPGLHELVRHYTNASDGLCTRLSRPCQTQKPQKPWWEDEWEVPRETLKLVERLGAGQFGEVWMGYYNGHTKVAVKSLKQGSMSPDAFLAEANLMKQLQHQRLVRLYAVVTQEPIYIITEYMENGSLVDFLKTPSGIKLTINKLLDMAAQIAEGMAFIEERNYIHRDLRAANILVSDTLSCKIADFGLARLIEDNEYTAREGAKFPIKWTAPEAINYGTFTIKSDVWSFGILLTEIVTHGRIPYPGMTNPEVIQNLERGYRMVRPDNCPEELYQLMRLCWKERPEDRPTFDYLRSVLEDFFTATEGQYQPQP

Examples with answers:
O=C(c1ccc(Nc2nc(C3CC3)cn3c(-c4cn[nH]c4)cnc23)c(Cl)c1)N1CCNCC1; > 20 µM
Cc1cn2c(-c3cn[nH]c3)cnc2c(Nc2ccc(C(=O)N3CCNC(C)(C)C3)cc2F)n1; > 20 µM

Let us examine a further case.
Form field: reported IC50 of `CC1(C)CNCCN1C(=O)c1ccc(Nc2nc(C3CC3)cn3c(-c4cn[nH]c4)cnc23)c(F)c1`
14.1 µM

* * *

protocol-notes: Tmax in mouse at 100 mg/kg, po
Format: ADME, organism-based
Design: dose 100 mg/kg, route oral
stated-conditions: in vivo
measurement-name: Tmax (h)
Return type: number; implicit unit h.

For `Cc1cn2c(-c3cn[nH]c3)cnc2c(Nc2ccc(C(=O)N3CCNCC3)cc2F)n1` , what is its reported Tmax?
4

* * *

protocol-notes: Tmax in mouse at 30 mg/kg, ip
Format: ADME, organism-based
Parameters: dose 30 mg/kg, route intraperitoneal
stated-conditions: in vivo
measurement-name: Tmax (min)
Give a bare numeral; the unit min is implied.

Recorded Tmax for `Cc1cn2c(-c3cn[nH]c3)cnc2c(Nc2ccc(C(=O)N3CCNCC3)cc2F)n1` , please?
30
